Please consider the recorded MIC for C. neoformans in what follows.
parameter: MIC (µg/mL)

These solved cases illustrate the format of a correct answer.
{"columns": ["compound", "uom", "val"],
 "data": [
  ["CN1CCN(CCCN2c3ccccc3Sc3ccc(Cl)cc32)CC1", "µg/mL", 64],
  ["CN(C)CCCN1c2ccccc2Sc2ccc(C(F)(F)F)cc21", "µg/mL", 32],
  ["CN1CCN(CCCN2c3ccccc3Sc3ccc(C(F)(F)F)cc32)CC1", "µg/mL", 16],
  ["CSc1ccc2c(c1)N(CCC1CCCCN1C)c1ccccc1S2 (stereo not shown)", "µg/mL", 16]
]}

(P) OCCN1CCN(CCCN2c3ccccc3Sc3ccc(C(F)(F)F)cc32)CC1
(Q) CN(C)CCCN1c2ccccc2Sc2ccc(Cl)cc21
(R) CN(C)CCCN1c2ccccc2Sc2ccccc21
Exercise: Please list these compounds in decreasing order of MIC. Put the labels in the requested order and write them down.
Solution: R, Q, P
(R: 64 µg/mL, Q: 25 µg/mL, P: 8 µg/mL)

Data credit: paper PMC8994671
